Below, each entry is listed with its recorded IC50.
- target-entity: human CaMKIIδ (Homo sapiens, UniProt Q13557)
- Construct: Full-length, glutathione-S-transferase(GST)-tagged, human CaMKIIδ was purchased from Carna Biosciences; purchased Carna Biosciences (CaMKIIδ); Wako Pure Chemical Industries (calmodulin) 02-111
- assay-procedure: Evaluation of in vitro CaMKII inhibitory activity (binding assay, TR-FRET)
- run-conditions: in vitro CaMKII inhibitory activity (binding assay), human CaMKIIδ; read-out: Act

Guide cases for IC50, answers given:
{"record-smiles": "COc1ccnc(-c2cnn3ccc(-c4cccc(O[C@@H](C)Cn5cnnn5)n4)nc23)c1C#N", "result": "> 100 nM"}
{"record-smiles": "C[C@@H](Cn1cnnn1)Oc1cccc(-c2ccc3ncn(-c4cccc(C(F)F)c4C#N)c3n2)c1", "result": "< 10 nM"}
{"record-smiles": "COc1cc(OC)c(C#N)c(-n2cnc3ccc(-c4cccc(O[C@@H](C)Cn5cnnn5)n4)nc32)c1", "result": "10 to 100 nM"}
{"record-smiles": "C[C@@H](Cn1cnnn1)Oc1cncc(-c2ccc3ncc(-c4cc(Cl)ccc4C#N)n3n2)n1", "result": "< 10 nM"}
{"record-smiles": "C[C@@H](Cn1cnnn1)Oc1cccc(-c2ccc3ncc(-c4ccncc4C#N)n3n2)c1", "result": "< 10 nM"}
{"record-smiles": "C[C@@H](Cn1cnnn1)Oc1cccc(-c2ccc3ncc(-c4cc(F)c[nH]c4=O)n3n2)c1", "result": "< 10 nM"}
{"record-smiles": "COc1cccc(-c2cnc3ccc(-c4cccc(O[C@@H](C)Cn5cnnn5)c4)nn23)c1C#N", "result": "< 10 nM"}
{"record-smiles": "C[C@@H](Cn1cnnn1)Oc1ccnc(-c2ccc3ncn(-c4cc(F)ccc4C#N)c3n2)n1", "result": "10 to 100 nM"}

Fill blank: measured IC50 of the compound C[C@@H](Cn1cnnn1)Oc1ccnc(-c2ccc3ncn(-c4cc(F)ccc4C#N)c3n2)c1 is ____. < 10 nM

Fill blank: measured IC50 of the compound C[C@@H](Cn1cnnn1)Oc1cc(-c2ccc3ncc(-c4c(C#N)ccc[n+]4[O-])n3n2)ccc1F is ____. 10 to 100 nM

Fill blank: measured IC50 of the compound C[C@@H](Cn1cnnn1)Oc1cccc(-c2ccn3ncc(-c4cnccc4C(N)=O)c3n2)c1 is ____. 10 to 100 nM

====

Below, each entry is listed with its recorded pIC50.
- target-entity: human CaMKIIδ (Homo sapiens, UniProt Q13557)
- Construct: Full-length, glutathione-S-transferase(GST)-tagged, human CaMKIIδ was purchased from Carna Biosciences; purchased Carna Biosciences (CaMKIIδ); Wako Pure Chemical Industries (calmodulin) 02-111
- assay-procedure: Evaluation of in vitro CaMKII inhibitory activity (binding assay, TR-FRET)
- run-conditions: in vitro CaMKII inhibitory activity (binding assay), human CaMKIIδ; read-out: Act
pIC50: −log10 of the molar value.

{"record-smiles": "COCCCn1ncc(-c2cnc3ccc(-c4ccc(F)c(O[C@@H](C)Cn5cnnn5)c4)nn23)c1C(=O)NCCOC", "experimental-readout": "pIC50", "result": "< 7.00"}
{"record-smiles": "C[C@@H](Cn1cnnn1)Oc1cc(-c2ccc3ncc(-c4cccnc4C#N)n3n2)ccc1F", "experimental-readout": "pIC50", "result": "> 8.00"}
{"record-smiles": "C[C@@H](Cn1cnnn1)Oc1cccc(-c2ccc3ncc(-c4cc(F)cnc4OCC(F)(F)F)n3n2)c1", "experimental-readout": "pIC50", "result": "> 8.00"}

Fill blank: measured pIC50 of the compound COc1nccnc1-c1cnc2ccc(-c3ccc(F)c(O[C@@H](C)Cn4cnnn4)c3)nn12 is ____. 7.00 to 8.00

Values were extracted from patent US12528816B2.
